run conditions: 303.15 K; 100.5 kPa; Liquid; Vibrating tube method
For each entry below, report its mass density value.
One number for each entry, in kg/m3.

I need mass density for every entry listed below, if you could help.
1. CCCCn1cc[n+](C)c1C.O=S(=O)([N-]S(=O)(=O)C(F)(F)F)C(F)(F)F
2. CCn1cc[n+](C)c1C.O=S(=O)([N-]S(=O)(=O)C(F)(F)F)C(F)(F)F
3. CCC[n+]1ccn(C)c1C.O=S(=O)([N-]S(=O)(=O)C(F)(F)F)C(F)(F)F
4. CCCCCCn1cc[n+](C)c1C.O=S(=O)([N-]S(=O)(=O)C(F)(F)F)C(F)(F)F

*A*
1414.6
1486.7
1450.3
1353.1
